Some molecules, each annotated with its measured viability, T/C.
- Test system: MDA-MB-231 complex spheroid viability
- assay remarks: Anticancer human tumor MDA-MB-231/ATCC cell line growth inhibition;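 further: drug exposure lasted 7 days starting on day 3 of spheroid growth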
- condition details: second compound 10 µM; first compound 3 µM; active compounds read low
quantity measured: viability, T/C

>>> observed_value("CCN(c1cc(-c2ccc(CN3CCOCC3)cc2)cc(C(=O)NCc2c(C)cc(C)[nH]c2=O)c1C)C1CCOCC1 + NC1CC1c1ccc(-c2cccc(O)c2)cc1")
"12.2%"
>>> observed_value("COc1cc(C2c3cc4c(cc3C(OC3OC5COC(C)OC5C(O)C3O)C3COC(=O)C23)OCO4)cc(OC)c1O (stereo not given) + NC1CCC(NC2CC2c2ccccc2)CC1")
"14.4%"
>>> observed_value("Nc1ccccc1NC(=O)c1ccc(CNC(=O)OCc2cccnc2)cc1 + NC1CCC(NC2CC2c2ccccc2)CC1")
"0.5%"
>>> observed_value("CCN(c1cc(-c2ccc(CN3CCOCC3)cc2)cc(C(=O)NCc2c(C)cc(C)[nH]c2=O)c1C)C1CCOCC1 + NC1CCC(NC2CC2c2ccccc2)CC1")
"43.5%"
>>> observed_value("O=C(C=Cc1cccc(S(=O)(=O)Nc2ccccc2)c1)NO + NC1CCC(NC2CC2c2ccccc2)CC1")
"0.33%"
>>> observed_value("COc1cc(C2c3cc4c(cc3C(OC3OC5COC(C)OC5C(O)C3O)C3COC(=O)C23)OCO4)cc(OC)c1O (stereo not given) + NC1CC1c1ccc(-c2cccc(O)c2)cc1")
"10%"
>>> observed_value("Nc1ccccc1NC(=O)c1ccc(CNC(=O)OCc2cccnc2)cc1 + NC1CC1c1ccc(-c2cccc(O)c2)cc1")
"0.24%"
>>> observed_value("NS(=O)(=O)OCC1CC(n2ccc3c(NC4CCc5ccccc54)ncnc32)CC1O (stereo not given) + NC1CC1c1ccc(-c2cccc(O)c2)cc1")
"20.2%"
>>> observed_value("O=C(C=Cc1cccc(S(=O)(=O)Nc2ccccc2)c1)NO + NC1CC1c1ccc(-c2cccc(O)c2)cc1")
"37.3%"
>>> observed_value("NS(=O)(=O)OCC1CC(n2ccc3c(NC4CCc5ccccc54)ncnc32)CC1O (stereo not given) + NC1CCC(NC2CC2c2ccccc2)CC1")
"28.8%"

====

- System: MDA-MB-231 complex spheroid viability
- assay remarks: Anticancer human tumor MDA-MB-231/ATCC cell line growth inhibition;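 further: drug exposure lasted 7 days starting on day 3 of spheroid growth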
- condition details: second compound 0.316 µM; first compound 0.949 µM; active compounds read low
quantity measured: viability, T/C (%)

>>> observed_value("O=C(C=Cc1cccc(S(=O)(=O)Nc2ccccc2)c1)NO + NC1CC1c1ccc(-c2cccc(O)c2)cc1")
0.33
>>> observed_value("Nc1ccccc1NC(=O)c1ccc(CNC(=O)OCc2cccnc2)cc1 + NC1CC1c1ccc(-c2cccc(O)c2)cc1")
1.85
>>> observed_value("CCN(c1cc(-c2ccc(CN3CCOCC3)cc2)cc(C(=O)NCc2c(C)cc(C)[nH]c2=O)c1C)C1CCOCC1 + NC1CCC(NC2CC2c2ccccc2)CC1")
68.4
>>> observed_value("NS(=O)(=O)OCC1CC(n2ccc3c(NC4CCc5ccccc54)ncnc32)CC1O (stereo not given) + NC1CC1c1ccc(-c2cccc(O)c2)cc1")
23.9
>>> observed_value("COc1cc(C2c3cc4c(cc3C(OC3OC5COC(C)OC5C(O)C3O)C3COC(=O)C23)OCO4)cc(OC)c1O (stereo not given) + NC1CC1c1ccc(-c2cccc(O)c2)cc1")
14.2
>>> observed_value("NS(=O)(=O)OCC1CC(n2ccc3c(NC4CCc5ccccc54)ncnc32)CC1O (stereo not given) + NC1CCC(NC2CC2c2ccccc2)CC1")
40.3
>>> observed_value("O=C(C=Cc1cccc(S(=O)(=O)Nc2ccccc2)c1)NO + NC1CCC(NC2CC2c2ccccc2)CC1")
14.1
>>> observed_value("CCN(c1cc(-c2ccc(CN3CCOCC3)cc2)cc(C(=O)NCc2c(C)cc(C)[nH]c2=O)c1C)C1CCOCC1 + NC1CC1c1ccc(-c2cccc(O)c2)cc1")
25.2
>>> observed_value("COc1cc(C2c3cc4c(cc3C(OC3OC5COC(C)OC5C(O)C3O)C3COC(=O)C23)OCO4)cc(OC)c1O (stereo not given) + NC1CCC(NC2CC2c2ccccc2)CC1")
16.8
>>> observed_value("Nc1ccccc1NC(=O)c1ccc(CNC(=O)OCc2cccnc2)cc1 + NC1CCC(NC2CC2c2ccccc2)CC1")
16.3

====

- System: MDA-MB-231 complex spheroid viability
- assay remarks: Anticancer human tumor MDA-MB-231/ATCC cell line growth inhibition; active = viability on the fitted dose curve at most 10% of control; inactive = the rest;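 further: drug exposure lasted 7 days starting on day 3 of spheroid growth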
- condition details: second compound 0.316 µM; first compound 0.03 µM
Outcome codes: Yes (active), No (inactive)

>>> class_assignment("CCN(c1cc(-c2ccc(CN3CCOCC3)cc2)cc(C(=O)NCc2c(C)cc(C)[nH]c2=O)c1C)C1CCOCC1 + NC1CCC(NC2CC2c2ccccc2)CC1")
"No"
>>> class_assignment("COc1cc(C2c3cc4c(cc3C(OC3OC5COC(C)OC5C(O)C3O)C3COC(=O)C23)OCO4)cc(OC)c1O (stereo not drawn) + NC1CC1c1ccc(-c2cccc(O)c2)cc1")
"No"
>>> class_assignment("Nc1ncn(C2CC(O)C(CO)S2)c(=O)n1 (stereo not drawn) + NC1CCC(NC2CC2c2ccccc2)CC1")
"No"
>>> class_assignment("NS(=O)(=O)OCC1CC(n2ccc3c(NC4CCc5ccccc54)ncnc32)CC1O (stereo not drawn) + NC1CC1c1ccc(-c2cccc(O)c2)cc1")
"No"
>>> class_assignment("CCc1c2c(nc3ccc(O)cc13)-c1cc3c(c(=O)n1C2)COC(=O)[C@]3(O)CC + NC1CC1c1ccc(-c2cccc(O)c2)cc1")
"Yes"
>>> class_assignment("Nc1ccn(C2OC(CO)C(O)C2(F)F)c(=O)n1 (stereo not drawn) + NC1CCC(NC2CC2c2ccccc2)CC1")
"No"
>>> class_assignment("Nc1ccccc1NC(=O)c1ccc(CNC(=O)OCc2cccnc2)cc1 + NC1CCC(NC2CC2c2ccccc2)CC1")
"No"
>>> class_assignment("Nc1ncn(C2CC(O)C(CO)S2)c(=O)n1 (stereo not drawn) + NC1CC1c1ccc(-c2cccc(O)c2)cc1")
"No"

====

# viability, T/C per record follows
- System: MDA-MB-231 complex spheroid viability
- assay remarks: Anticancer human tumor MDA-MB-231/ATCC cell line growth inhibition;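 further: drug exposure lasted 7 days starting on day 3 of spheroid growth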
- condition details: second compound 0.1 µM; first compound 0.03 µM; active compounds read low
- Description: Multicellular complex tumor spheroid response to LSD1 Inhibitor Iadademstat in combination with a variety of drugs and investigational agents in selected tumor cell lines The current study was undertaken to assess response to LSD1 inhibitors in combination with standard-of-care drugs and investigational agents in solid tumor complex spheroid models as well as in the K-562 leukemia. […] Compounds. […] If the clinical Cmax for an agent had not been determined, the highest concentration tested was 10 microM. […]
quantity measured: viability, T/C (%)

>>> observed_value("COc1cc(C2c3cc4c(cc3C(OC3OC5COC(C)OC5C(O)C3O)C3COC(=O)C23)OCO4)cc(OC)c1O (centres undefined) + NC1CCC(NC2CC2c2ccccc2)CC1")
79.8
>>> observed_value("Nc1ccn(C2OC(CO)C(O)C2(F)F)c(=O)n1 (centres undefined) + NC1CCC(NC2CC2c2ccccc2)CC1")
15.9
>>> observed_value("NS(=O)(=O)OCC1CC(n2ccc3c(NC4CCc5ccccc54)ncnc32)CC1O (centres undefined) + NC1CCC(NC2CC2c2ccccc2)CC1")
117
>>> observed_value("NS(=O)(=O)OCC1CC(n2ccc3c(NC4CCc5ccccc54)ncnc32)CC1O (centres undefined) + NC1CC1c1ccc(-c2cccc(O)c2)cc1")
94.3
>>> observed_value("Nc1ccccc1NC(=O)c1ccc(CNC(=O)OCc2cccnc2)cc1 + NC1CC1c1ccc(-c2cccc(O)c2)cc1")
34.9
>>> observed_value("Nc1ncn(C2CC(O)C(CO)S2)c(=O)n1 (centres undefined) + NC1CC1c1ccc(-c2cccc(O)c2)cc1")
32.4
>>> observed_value("CCN(c1cc(-c2ccc(CN3CCOCC3)cc2)cc(C(=O)NCc2c(C)cc(C)[nH]c2=O)c1C)C1CCOCC1 + NC1CCC(NC2CC2c2ccccc2)CC1")
93.3
>>> observed_value("Nc1ccn(C2OC(CO)C(O)C2(F)F)c(=O)n1 (centres undefined) + NC1CC1c1ccc(-c2cccc(O)c2)cc1")
19.4
>>> observed_value("CCc1c2c(nc3ccc(O)cc13)-c1cc3c(c(=O)n1C2)COC(=O)[C@]3(O)CC + NC1CC1c1ccc(-c2cccc(O)c2)cc1")
4.83

====

The following compounds are shown together with reported viability, T/C values.
- Tested on: MDA-MB-231 complex spheroid viability
- assay remarks: Anticancer human tumor MDA-MB-231/ATCC cell line growth inhibition;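 further: drug exposure lasted 7 days starting on day 3 of spheroid growth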
- condition details: second compound 10 µM; first compound 0.0949 µM; active compounds read low
quantity measured: viability, T/C (%)

>>> observed_value("Nc1ncn(C2CC(O)C(CO)S2)c(=O)n1 (stereo unspecified) + NC1CC1c1ccc(-c2cccc(O)c2)cc1")
12.1
>>> observed_value("O=C(C=Cc1cccc(S(=O)(=O)Nc2ccccc2)c1)NO + NC1CC1c1ccc(-c2cccc(O)c2)cc1")
12.8
>>> observed_value("CCN(c1cc(-c2ccc(CN3CCOCC3)cc2)cc(C(=O)NCc2c(C)cc(C)[nH]c2=O)c1C)C1CCOCC1 + NC1CCC(NC2CC2c2ccccc2)CC1")
54.8
>>> observed_value("Nc1ccn(C2OC(CO)C(O)C2(F)F)c(=O)n1 (stereo unspecified) + NC1CCC(NC2CC2c2ccccc2)CC1")
6.87
>>> observed_value("NS(=O)(=O)OCC1CC(n2ccc3c(NC4CCc5ccccc54)ncnc32)CC1O (stereo unspecified) + NC1CC1c1ccc(-c2cccc(O)c2)cc1")
34.8
>>> observed_value("Nc1ccccc1NC(=O)c1ccc(CNC(=O)OCc2cccnc2)cc1 + NC1CCC(NC2CC2c2ccccc2)CC1")
32.2
>>> observed_value("Nc1ccccc1NC(=O)c1ccc(CNC(=O)OCc2cccnc2)cc1 + NC1CC1c1ccc(-c2cccc(O)c2)cc1")
12
>>> observed_value("Nc1ccn(C2OC(CO)C(O)C2(F)F)c(=O)n1 (stereo unspecified) + NC1CC1c1ccc(-c2cccc(O)c2)cc1")
10.9
>>> observed_value("O=C(C=Cc1cccc(S(=O)(=O)Nc2ccccc2)c1)NO + NC1CCC(NC2CC2c2ccccc2)CC1")
17.9
>>> observed_value("CCc1c2c(nc3ccc(O)cc13)-c1cc3c(c(=O)n1C2)COC(=O)[C@]3(O)CC + NC1CCC(NC2CC2c2ccccc2)CC1")
3.42
>>> observed_value("COc1cc(C2c3cc4c(cc3C(OC3OC5COC(C)OC5C(O)C3O)C3COC(=O)C23)OCO4)cc(OC)c1O (stereo unspecified) + NC1CCC(NC2CC2c2ccccc2)CC1")
44.4
>>> observed_value("COc1cc(C2c3cc4c(cc3C(OC3OC5COC(C)OC5C(O)C3O)C3COC(=O)C23)OCO4)cc(OC)c1O (stereo unspecified) + NC1CC1c1ccc(-c2cccc(O)c2)cc1")
24.9
>>> observed_value("Nc1ncn(C2CC(O)C(CO)S2)c(=O)n1 (stereo unspecified) + NC1CCC(NC2CC2c2ccccc2)CC1")
15.9
>>> observed_value("CCc1c2c(nc3ccc(O)cc13)-c1cc3c(c(=O)n1C2)COC(=O)[C@]3(O)CC + NC1CC1c1ccc(-c2cccc(O)c2)cc1")
0.74
>>> observed_value("CCN(c1cc(-c2ccc(CN3CCOCC3)cc2)cc(C(=O)NCc2c(C)cc(C)[nH]c2=O)c1C)C1CCOCC1 + NC1CC1c1ccc(-c2cccc(O)c2)cc1")
34.3
>>> observed_value("NS(=O)(=O)OCC1CC(n2ccc3c(NC4CCc5ccccc54)ncnc32)CC1O (stereo unspecified) + NC1CCC(NC2CC2c2ccccc2)CC1")
40.4
